assay: qHTS cell viability (CellTiter-Glo, 72 h; primary screen), control cell line; format: cell-based, human; conditions: human, HACAT cells (control cell line); HACAT, Log (M) -4.81358; read-out: Percent viability
measuredEndpoint: viability at 72 h, 15.4 µM (%)
Answer in %, number only, no unit symbol.

Record summary for COCCn1c2c([n+](Cc3cnccn3)c1C)C(=O)c1ccccc1C2=O [sepantronium bromide, reference compound] : reported viability at 72 h, 15.4 µM = 21.2

* * *

test system: MKL-2 cells (VP-MCC); test: qHTS cell viability (CellTiter-Glo, 72 h; primary and follow-up small molecule screen); type: cell-based, human; details: area under the dose-response curve, MKL-2 cells; AUC<450 = reduced viability
measuredEndpoint: MKL2_AUC
# answer = number (no unit)

Record summary for CC1=C(C)C(=O)C(CCCCC#CCCCC#CCO)=C(C)C1=O [Docebenone] : reported MKL2_AUC = 406.862

Record summary for CC1=C(/C=C/C(C)=C/C=C/C(C)=C\C(=O)O)C(C)(C)CCC1 [Isotretinoin] : reported MKL2_AUC = 402.656

Record summary for O=C(CCc1ccc(O)cc1)c1c(O)cc(O)cc1O [Phloretin] : reported MKL2_AUC = 410.273

Record summary for CCCCCCCCCCCC1=C(O)C(=O)C=C(O)C1=O [Embelin] : reported MKL2_AUC = 427.936

Record summary for CC(=O)O[C@]1(C(C)=O)CC[C@H]2[C@@H]3C=C(C)C4=CC(=O)CC[C@]4(C)[C@H]3CC[C@@]21C [Megestrol acetate] : reported MKL2_AUC = 447.482

Record summary for CC(C)(C)NCC(O)c1cc(O)cc(O)c1.CC(C)(C)NCC(O)c1cc(O)cc(O)c1.O=S(=O)(O)O (stereo not drawn) [Terbutaline hemisulfate] : reported MKL2_AUC = 440.746

Record summary for O=C(O)/C=C(\CC(=O)O)C(=O)O [trans-Aconitic acid] : reported MKL2_AUC = 378.194

Record summary for O=C(CCCN1CCC(O)(c2ccc(Br)cc2)CC1)c1ccc(F)cc1 [Bromperidol] : reported MKL2_AUC = 116.273

Record summary for CSc1ccc2c(c1)N(CCC1CCCCN1C)c1ccccc1S2 (stereo not drawn) [Thioridazine] : reported MKL2_AUC = 356.974

* * *

test system: NIH-3T3 cells; assay: qHTS cell viability (CellTiter-Glo, 72 h; primary screen), control cell line; format: cell-based, mouse; conditions: area under the dose-response curve, NIH3T3 control cells; AUC<450 = reduced viability
Counter-ions that a name gives are not always drawn.
measuredEndpoint: NIH3T3_AUC
# answer = number (no unit)

Record summary for Nc1ccc(C(=O)NCC(=O)O)cc1 : reported NIH3T3_AUC = 454.303

Record summary for Cc1c(C)n(Cc2ccc(-c3ccccc3C(=O)O)cc2)c2ccc(C(=O)N[C@@H](C)c3ccc([N+](=O)[O-])cc3)cc12 : reported NIH3T3_AUC = 484.086

Record summary for CC[N+](CC)(CC)CCOC(=O)C(C1CCCC1)C1CCCC1 [Diponium bromide] : reported NIH3T3_AUC = 484.264

Record summary for CCCC(=O)OC[C@@H](OC(=O)CCC)[C@@H](OC(=O)CCC)[C@H](Cn1c2nc(=O)[nH]c(=O)c-2nc2cc(C)c(C)cc21)OC(=O)CCC [Riboflavin tetrabutyrate] : reported NIH3T3_AUC = 473.017

Record summary for Cc1nc2c([nH]1)c(=O)n(C)c(=O)n2Cc1ccco1 : reported NIH3T3_AUC = 485.732

Record summary for COc1ccc(C(=O)CC(=O)c2ccc(C(C)(C)C)cc2)cc1 : reported NIH3T3_AUC = 482.946

Record summary for CC(C)(C)NCC(O)c1cc(O)cc(O)c1.CC(C)(C)NCC(O)c1cc(O)cc(O)c1.O=S(=O)(O)O (stereo not shown) [Terbutaline hemisulfate] : reported NIH3T3_AUC = 463.76

Record summary for CC(=O)O[C@]1(C(C)=O)CC[C@H]2[C@@H]3C=C(C)C4=CC(=O)CC[C@]4(C)[C@H]3CC[C@@]21C [Megestrol acetate] : reported NIH3T3_AUC = 478.678

Record summary for C[C@H](CCC(=O)O)[C@H]1CC[C@H]2[C@@H]3[C@H](O)C[C@@H]4C[C@H](O)CC[C@]4(C)[C@H]3CC[C@]12C : reported NIH3T3_AUC = 479.384

Record summary for CC1=C(/C=C/C(C)=C/C=C/C(C)=C\C(=O)O)C(C)(C)CCC1 : reported NIH3T3_AUC = 458.083

Record summary for CCOC(=O)[C@H](CCc1ccccc1)N[C@@H](C)C(=O)N1CCC[C@H]1C(=O)O [Enalapril maleate] : reported NIH3T3_AUC = 481.903

Record summary for O=C(O)/C=C(\CC(=O)O)C(=O)O [trans-Aconitic acid] : reported NIH3T3_AUC = 503.673

Record summary for COc1cc(C(=O)NCc2ccc(OCCN(C)C)cc2)cc(OC)c1OC [Trimethobenzamide hydrochloride] : reported NIH3T3_AUC = 459.509

Record summary for CCCCCCCCCCCC1=C(O)C(=O)C=C(O)C1=O : reported NIH3T3_AUC = 468.399

Record summary for CCOc1cc(N)c(Cl)cc1C(=O)NCC1CN(Cc2ccc(F)cc2)CCO1 (stereo not shown) [Mosapride citrate] : reported NIH3T3_AUC = 470.089

Record summary for CCN(CC)CCNC(=O)c1ccc(NC(C)=O)cc1 [Acecainide hydrochloride] : reported NIH3T3_AUC = 480.581
